biological target: Human immunodeficiency virus type 1 reverse transcriptase (Human immunodeficiency virus 1)
ASSAY ENDPOINT: Kd (µM)
Please give a number only; it is taken to be in µM.

• Nc1ncnc2c1ncn2[C@@H]1C[C@H](COP(=O)(O)OP(=O)(O)OP(=O)(O)O)[C@H]1F = 25.5
• Nc1ncnc2c1ncn2[C@H]1C[C@@H](OCP(=O)(O)OP(=O)(O)OP(=O)(O)O)C1 = 6.5
• Nc1ncnc2c1ncn2[C@H]1C[C@H](O)[C@@H](COP(=O)(O)OP(=O)(O)OP(=O)(O)O)O1 = 4.6
• Nc1ncnc2c1ncn2[C@H]1C[C@@H](COP(=O)(O)OP(=O)(O)OP(=O)(O)O)C1 = 20.4
• NC1=Nc2ncnc3c2c(cn3[C@H]2C[C@@H](COP(=O)(O)OP(=O)(O)OP(=O)(O)O)C2)C=C1 = 22.4

Please turn your attention to the following entry.
## Input Look up Kd for this compound: C[C@H](Cn1cnc2c(N)ncnc21)OCP(=O)(O)OP(=O)(O)OP(=O)(O)O
## Output 16.5

----------
biological target: Human immunodeficiency virus type 1 reverse transcriptase (Human immunodeficiency virus 1); test: Binding affinity to wild type HIV1 reverse transcriptase assessed as compound incorporation in presence of 50 nM primer template and 10 mM MgCl2 by pre-steady state kinetics study
# label = yes (1) if K < 0.2 s⁻¹ else no (0)

## Input Record Nc1ncnc2c1ncn2[C@H]1C[C@H](O)[C@@H](COP(=O)(O)OP(=O)(O)OP(=O)(O)O)O1 : is its K strictly below 0.2 s⁻¹?
## Output no (0)

## Input is_below(K, 0.2 s⁻¹) for Nc1ncnc2c1ncn2[C@H]1C[C@@H](OCP(=O)(O)OP(=O)(O)OP(=O)(O)O)C1 ?
## Output no (0)

## Input Here's an entry: Nc1ncnc2c1ncn2[C@H]1C[C@@H](COP(=O)(O)OP(=O)(O)OP(=O)(O)O)C1 . Is its K below 0.2 s⁻¹?
## Output no (0)

## Input is_below(K, 0.2 s⁻¹) for Nc1ncnc2c1ncn2[C@@H]1C[C@H](COP(=O)(O)OP(=O)(O)OP(=O)(O)O)[C@H]1F ?
## Output yes (1)

## Input Say whether its K is strictly beneath 0.2 s⁻¹. Entry: C[C@H](Cn1cnc2c(N)ncnc21)OCP(=O)(O)OP(=O)(O)OP(=O)(O)O
## Output no (0)

## Input Determine whether this compound shows K lower than 0.2 s⁻¹ (ties excluded): NC1=Nc2ncnc3c2c(cn3[C@H]2C[C@@H](COP(=O)(O)OP(=O)(O)OP(=O)(O)O)C2)C=C1
## Output yes (1)

----------
target: Human immunodeficiency virus type 1 reverse transcriptase (Human immunodeficiency virus 1) (UniProt Q72547); assay: Inhibition of wild type HIV1 reverse transcriptase assessed as compound incorporation efficiency in presence of 50 nM primer template and 10 mM MgCl2 by pre-steady state kinetics study
ASSAY ENDPOINT: log10(Activity) (log10 of the value in s⁻¹ µM⁻¹)
Values reflect log10 of reported Activity (s⁻¹ µM⁻¹).

Worked examples follow.
* Nc1ncnc2c1ncn2[C@@H]1C[C@H](COP(=O)(O)OP(=O)(O)OP(=O)(O)O)[C@H]1F | -2.28
* Nc1ncnc2c1ncn2[C@H]1C[C@@H](COP(=O)(O)OP(=O)(O)OP(=O)(O)O)C1 | -1.96
* NC1=Nc2ncnc3c2c(cn3[C@H]2C[C@@H](COP(=O)(O)OP(=O)(O)OP(=O)(O)O)C2)C=C1 | -2.15
* C[C@H](Cn1cnc2c(N)ncnc21)OCP(=O)(O)OP(=O)(O)OP(=O)(O)O | -1.32
* Nc1ncnc2c1ncn2[C@H]1C[C@H](O)[C@@H](COP(=O)(O)OP(=O)(O)OP(=O)(O)O)O1 | 0.43

// next entry
## Input Given the entry Nc1ncnc2c1ncn2[C@H]1C[C@@H](OCP(=O)(O)OP(=O)(O)OP(=O)(O)O)C1 , report its measured log10(Activity).
## Output -0.68
